measurement-label: melting point

- compound: "COc1ccc(-n2nc(C3CC3)cc2-c2ccc(OCCN)cc2)cc1.Cl [322]"
  value-measured: "228 to 231 °C"
- compound: "COc1ccc(-n2nc(C(F)(F)F)cc2-c2ccc(CCCS(C)(=O)=O)cc2)cn1"
  value-measured: "121 to 122 °C"
- compound: "COc1ccc(-n2nc(C(=O)N3CCCCC3)cc2-c2ccc(CNS(C)(=O)=O)cc2)cn1"
  value-measured: "182.6 to 182.9 °C"

Exercise: Which melting point value is on record for COc1ccc(-n2nc(C(F)(F)F)cc2-c2ccc(CNC(N)=O)cc2)cn1 ?
Solution: 147 to 149 °C

Exercise: Which melting point value is on record for COc1ccc(-n2nc(OCC(F)(F)F)cc2-c2ccc(OCCO)cc2)cc1 ?
Solution: 50.7 to 51.7 °C

----------
// reported melting point for each item listed

Below, 2 compounds whose answers are already recorded.
- line-notation: "COc1ccc(-n2nc(C(F)F)cc2-c2ccc(CNS(C)(=O)=O)cc2)cn1"
  melting point: "125.7 to 126.1 °C"
- line-notation: "COc1ccc(-n2nc(C(=O)C(C)C)cc2-c2ccc(OCCNC(N)=O)cc2)cn1"
  melting point: "145 to 147 °C"

Exercise: Which melting point value is on record for COc1ccc(-n2nc(Cl)cc2-c2ccc(OCCNC(N)=O)cc2)cc1 ?
Solution: 144.8 to 145.4 °C

Exercise: Which melting point value is on record for COc1ccc(-n2nc(C(F)(F)F)cc2-c2ccc(OCCNC(C)=O)cc2)cc1 ?
Solution: 109.8 to 110.2 °C

Exercise: Which melting point value is on record for COc1ccc(-n2nc(C(=O)C(C)C)cc2-c2ccc(OCCO)cc2)cc1 ?
Solution: 95 to 96 °C

----------
// reported melting point for each item listed

Below, 4 molecules whose answers are already recorded.
- line-notation: "CCOc1cc(-c2ccc(OCCO)cc2)n(-c2ccc(OC)cc2)n1"
  melting point: "67.7 to 69.2 °C"
- line-notation: "CCOc1cc(-c2ccc(OCCNS(C)(=O)=O)cc2)n(-c2ccc(OC)cc2)n1"
  melting point: "146 to 147 °C"
- line-notation: "COc1ccc(-n2nc(C(F)F)cc2-c2ccc(CCNC(N)=O)cc2)cn1"
  melting point: "194 to 196 °C"
- line-notation: "COc1ccc(-n2nc(C(=O)C(C)C)cc2-c2ccc(CNS(C)(=O)=O)cc2)cc1"
  melting point: "155.8 to 155.9 °C"

Please examine the following record next.
Exercise: Which melting point value is on record for COc1ccc(-n2nc(SC)cc2-c2ccc(OCCNS(C)(=O)=O)cc2)cc1 ?
Solution: 165 to 166 °C

----------
measurement-label: melting point

Below, 4 compounds whose answers are already recorded.
- line-notation: "COc1ccc(-n2nc(C(=O)N3CCCCC3)cc2-c2ccc(CNC(N)=O)cc2)cn1"
  measurement-label: "melting point"
  value-measured: "178.9 °C"
- line-notation: "COc1ccc(-n2nc(-c3nc(C)no3)cc2-c2ccc(OCCO)cc2)cc1"
  measurement-label: "melting point"
  value-measured: "158 to 159 °C"
- line-notation: "COc1ccc(-n2nc(OC)cc2-c2ccc(OCCNC(N)=O)cc2)cn1"
  measurement-label: "melting point"
  value-measured: "192.6 to 192.7 °C"
- line-notation: "CCN(C)C(=O)c1cc(-c2ccc(CNC(N)=O)cc2)n(-c2ccc(OC)nc2)n1"
  measurement-label: "melting point"
  value-measured: "172.6 to 172.8 °C"

Please examine the following record next.
Exercise: Which melting point value is on record for COc1ccc(-n2nc(C(F)(F)F)cc2-c2ccc(CCNS(N)(=O)=O)cc2)cc1 ?
Solution: 127 to 128 °C
